These data points were gathered from PubChem BioAssay AID1241.

Experiment: NF-kB promoter reporter activators, neuronal cells, dose response, cell-based, SH-SY5Y, luciferase (AID 1241)
Settings: fold induction
A collection of molecules and their measured pEC50
Scale for pEC50: -log10 of concentration given in mol/L; no unit attached.

Some solved entries appear below for comparison.
>>> df
                                   molecule  recorded_number
0  Cn1cc([N+](=O)[O-])c(C(=O)Nc2ccc(-c3nc4ccccc4[nH]3)cc2)n1             5.85
1  Cc1c(-c2nc(N)nc(Nc3ccccc3F)n2)oc2ccccc12             5.69
2  Cc1ccc2nc(-c3ccc(NS(=O)(=O)c4ccc(F)c(F)c4)cc3)sc2c1             5.44
3  CCOC(=O)C1=C(C)n2c(s/c(=C/c3cccc([N+](=O)[O-])c3)c2=O)=NC1c1ccc(O)c(OC)c1 (stereo unspecified)             5.68
4          COc1ccccc1-c1nc(-c2ccc(Br)o2)no1             5.98

# return recorded pEC50 for input "O=[N+]([O-])c1ccccc1OCc1nc(-c2cccs2)no1" 5.76

# return recorded pEC50 for input "Cc1ccccc1-c1cc(-c2ccccc2O)n[nH]1" 4.75

# return recorded pEC50 for input "CCCCOC(=O)Nc1ccc(N2CCCCC2)cc1" 4.69

# return recorded pEC50 for input "Cc1ccccc1-c1noc(-c2ccc(O)cc2)n1" 5.21

# return recorded pEC50 for input "O=C(c1cccs1)c1ccc(-c2cccs2)s1" 6.21

# return recorded pEC50 for input "O=C(NCCC1=CCCCC1)Nc1ccc2nsnc2c1" 5.32

# return recorded pEC50 for input "Cc1ccc(/C=N/Nc2ccc(Cl)c(C(=O)O)c2)s1" 4.89
